Test system: Escherichia coli IAI1
Procedure details: fold change of Putrescine concentration vs plate DMSO controls (fold change (ratio)); higher = more amine produced, active = hit call of the paper (significant change in both replicates, either direction)
Condition label: incubation time: 27 h, anaerobic, 37 °C
Structures can show the parent of a compound that is named as a salt.
Property measured: fold change of Putrescine concentration
A bare number is all that is needed in reply.

Req: What does the record list as fold change of Putrescine concentration for CC(CN1c2ccccc2Sc2ccccc21)N(C)C (stereo not drawn) [Promethazine hydrochloride] (20 µM) ?
Resp: 0.858

Req: I have this compound here, CC(C)(CO)[C@@H](O)C(=O)NCCCC(=O)O [Hopantenate calcium] (20 µM) , and I need its recorded fold change of Putrescine concentration.
Resp: 1.01

Req: Bench note: what fold change of Putrescine concentration did O=P(O)(O)C(Cl)(Cl)P(=O)(O)O [Clodronate disodium] (20 µM) show?
Resp: 1.02

Req: Entry NC[C@H]1O[C@H](O[C@H]2[C@H](O)[C@@H](O[C@H]3O[C@H](CO)[C@@H](O)[C@H](N)[C@H]3O)[C@H](N)C[C@@H]2N)[C@H](N)C[C@@H]1O [Tobramycin] (20 µM) has what fold change of Putrescine concentration?
Resp: 0.911

----------
Test system: Ruminococcus gnavus DSM 108212
Procedure details: fold change of Tryptamine concentration vs plate DMSO controls (fold change (ratio)); higher = more amine produced, active = hit call of the paper (significant change in both replicates, either direction)
Condition label: incubation time: 27 h, anaerobic, 37 °C
Property measured: fold change of Tryptamine concentration
Reply briefly: the number, and no unit.

Some solved entries appear below for comparison.
INSERT INTO results (compound, property_measured, experimental_result) VALUES
  ('OC[C@H]1O[C@H](O[C@H]2O[C@H](CO)[C@@H](O)[C@H](O)[C@H]2O)[C@H](O)[C@@H](O)[C@@H]1O [Trehalose dihydrate] (20 µM)', 'fold change of Tryptamine concentration', 1.06),
  ('OCCOCCN1CCN(C2=Nc3ccccc3Sc3ccccc32)CC1 [Quetiapine hemifumarate] (20 µM)', 'fold change of Tryptamine concentration', 1.01),
  ('CCCc1nc(C)c2c(=O)nc(-c3cc(S(=O)(=O)N4CCN(CC)CC4)ccc3OCC)[nH]n12 [Vardenafil] (20 µM)', 'fold change of Tryptamine concentration', 1.05);

Let us examine a further case.
Req: Report fold change of Tryptamine concentration for O=C(NCC(O)CO)c1c(I)c(C(=O)NCC(O)CO)c(I)c(N(CCO)C(=O)CO)c1I (centres undefined) [Ioversol] (20 µM) please.
Resp: 1.11

----------
Let's look at some compounds and their measured fold change of Putrescine concentration.
System: Escherichia coli IAI1
Procedure details: fold change of Putrescine concentration vs plate DMSO controls (fold change (ratio)); higher = more amine produced, active = hit call of the paper (significant change in both replicates, either direction)
Condition label: incubation time: 27 h, anaerobic, 37 °C
Counter-ions that a name gives are not always drawn.
Answer with a number only.

INSERT INTO results (compound, system_under_test, experimental_result) VALUES
  ('NC(=O)c1cn(Cc2c(F)cccc2F)nn1 [Rufinamide] (20 µM)', 'Escherichia coli IAI1', 0.999),
  ('CNCC[C@@H](Oc1cccc2ccccc12)c1cccs1 [(R)-Duloxetine hydrochloride] (20 µM)', 'Escherichia coli IAI1', 1.04),
  ('NS(=O)(=O)c1cc(C(=O)O)cc(N2CCCC2)c1Oc1ccccc1 [Piretanide] (20 µM)', 'Escherichia coli IAI1', 0.974),
  ('Cc1nn(C)c(Oc2ccccc2)c1/C=N/OCc1ccc(C(=O)OC(C)(C)C)cc1 (20 µM)', 'Escherichia coli IAI1', 1.02),
  ('CO[C@@H]1[C@@H](O[C@@H]2O[C@H](C)[C@@H](O[C@H]3C[C@@](C)(O)[C@@H](OC(=O)CC(C)C)[C@H](C)O3)[C@H](N(C)C)[C@H]2O)[C@@H](CC=O)C[C@@H](C)[C@@H](O)/C=C/C=C/C[C@@H](C)OC(=O)C[C@H]1OC(C)=O [Josamycin] (20 µM)', 'Escherichia coli IAI1', 0.708),
  ('CN1CCN(CC(=O)N2c3ccccc3C(=O)Nc3cccnc32)CC1 [Pirenzepine dihydrochloride] (20 µM)', 'Escherichia coli IAI1', 1.01);

Req: Requested read-out: fold change of Putrescine concentration. Entry: O=C(c1cc(O)c(O)c(O)c1)c1ccc(O)c(O)c1O [Exifone] (20 µM)
Resp: 1.01

----------
System: Klebsiella aerogenes DSM 30053
Procedure details: fold change of Cadaverine concentration vs plate DMSO controls (fold change (ratio)); higher = more amine produced, active = hit call of the paper (significant change in both replicates, either direction)
Condition label: incubation time: 27 h, anaerobic, 37 °C
Where a name gives a salt, the structure may show the parent alone.
Property measured: fold change of Cadaverine concentration
Provide a numeric answer; units are not to be included.

INSERT INTO measurements (molecule, property_measured, experimental_result) VALUES
  ('Nc1c2c(nc3ccccc13)CCCC2 [Tacrine hydrochloride] (20 µM)', 'fold change of Cadaverine concentration', 1.15),
  ('CO[C@@]1(NC(=O)C(C(=O)O)c2ccc(O)cc2)C(=O)N2C(C(=O)O)=C(CSc3nnnn3C)CO[C@@H]21 (some centres not stated) [Moxalactam disodium salt] (20 µM)', 'fold change of Cadaverine concentration', 1.02);

Req: Notebook: pull reported fold change of Cadaverine concentration for Klebsiella aerogenes DSM 30053, entry CNCc1cc(-c2ccccc2F)n(S(=O)(=O)c2cccnc2)c1 [Vonoprazan] (20 µM)
Resp: 0.982

Req: Notebook entry, Klebsiella aerogenes DSM 30053 assay: fold change of Cadaverine concentration of CCCc1c2oc(C(=O)O)cc(=O)c2cc2c(=O)cc(C(=O)O)n(CC)c12 [Nedocromil sodium] (20 µM) = ?
Resp: 0.984

Req: Hi! What's the reported fold change of Cadaverine concentration for C[C@H](CCC(=O)O)[C@H]1CC[C@H]2[C@@H]3CC[C@@H]4C[C@H](O)CC[C@]4(C)[C@H]3CC[C@]12C [Lithocholic acid] (20 µM) on Klebsiella aerogenes DSM 30053?
Resp: 1.03

Req: Which fold change of Cadaverine concentration is reported with Klebsiella aerogenes DSM 30053 for this entry: COC(=O)Nc1nc2cc(C(=O)c3cccs3)ccc2[nH]1 [Nocodazole] (20 µM) ?
Resp: 1.03

Req: Can you look up fold change of Cadaverine concentration on Klebsiella aerogenes DSM 30053 for CN1CCN(c2c(F)cc3c(=O)c(C(=O)O)cn4c3c2OCN4C)CC1 [Marbofloxacin] (20 µM) ?
Resp: 0.932

----------
Examples of molecules with documented growth follow.
System: Klebsiella aerogenes DSM 30053
Procedure details: growth (OD595) fold change vs plate DMSO controls (fold change (ratio)); higher = more growth
Condition label: incubation time: 27 h, anaerobic, 37 °C
Counter-ions that a name gives are not always drawn.
Give your answer as a number; write no unit.

As a guide, the following entries are already answered.
INSERT INTO measurements (molecule, property_measured, experimental_result) VALUES
  ('O=C(CCCl)NCc1ccccc1 [Beclamide] (20 µM)', 'growth', 1),
  ('Cc1cc(C(C)(C)CC(C)(C)C)ccc1OCCOCC[N+](C)(C)Cc1ccccc1 [Methyl benzethonium chloride] (20 µM)', 'growth', 1.04),
  ('Cn1cc([S+](C)[O-])c(=O)c2ccc(F)cc21 (stereo not given) [Flosequinan] (20 µM)', 'growth', 1.01),
  ('CNCCc1ccccn1 [Betahistine mesylate] (20 µM)', 'growth', 1.02);

Proceed to the following item.
Req: Lab note: need growth for N#Cc1ccc(Oc2ccc3c(c2)COB3O)cc1 [Crisaborole] (20 µM) on Klebsiella aerogenes DSM 30053, anyone have it?
Resp: 1.02

----------
Tested on: Escherichia coli IAI1
Procedure details: growth (OD595) fold change vs plate DMSO controls (fold change (ratio)); higher = more growth
Condition label: incubation time: 27 h, anaerobic, 37 °C
Where a name gives a salt, the structure may show the parent alone.
Class condition met: growth at least 1. Class condition not met: growth below 1.

Req: Does the reported growth for CSc1nc2cc(Cl)c(Oc3cccc(Cl)c3Cl)cc2[nH]1 [Triclabendazole] (20 µM) fall at or above the 1 mark?
Resp: condition met

Req: // inclusive: growth at least 1? input: C[C@H](CCC(=O)O)[C@H]1CC[C@H]2[C@@H]3C(=O)C[C@@H]4CC(=O)CC[C@]4(C)[C@H]3CC(=O)[C@]12C [Dehydrocholic acid] (20 µM)
Resp: condition not met

Req: Could you tell me if the measured growth of Nc1nc(=O)[nH]cc1F [Flucytosine] (20 µM) reaches 1 or more?
Resp: condition not met

Req: I'd appreciate it if you could say whether COc1cc2c(cc1OC)C(=O)C(CC1CCN(Cc3ccccc3)CC1)C2 (stereo unspecified) [Donepezil hydrochloride] (20 µM) has growth at least equal to 1.
Resp: condition met
